system: testes receptor (testis membranes)
testMethodNotes: Displacement of [125I]074(d) from rat testis membranes (Scatchard / displacement binding assay)
pKi: −log10 of the molar value.
// reported pKi for each item listed

{"molecule": "CCN1CCC2C(C1)c1ccc(C)cc1C2c1ccc(C(=O)O)cc1 (centres unmarked) [RTI-4587-054(d)]", "pKi": "~6.27"}

Please look at the following molecule next.
Q: I would be grateful if you could share the reported pKi for CCN1CCC2C(C1)c1ccc(C)cc1C2c1ccc(C(=O)O)cc1 (centres unmarked) [RTI-4587-054(l)] .
Result: ~3.48

====

system: testes receptor (testis membranes)
testMethodNotes: Displacement of [125I]074(d) from rat testis membranes (Scatchard / displacement binding assay)
details: average Ki, 25° C., 2 hours, for 074(d) the Ki is a Kd, listed as 074(d)
Text: • 1. […] Homogenize the tissue for 20 sec with a Polytron tissue homogenizer (probe no. PTA 10S, 12 mm) at a medium setting (4-6 on a rheostat scale of 10) or until a smooth suspension is obtained. • 4. […] Label liquid scintillation vials for free radioactivity determination. • 2. […] For each level of standard, determine the CP Ms of free (essentially equivalent to total radioactivity added), total bound, and non-specific bound (NSB) compound. • 2. […]
propertyLabel: pKi
Scale for pKi: -log10 of concentration given in mol/L; no unit attached.

Q: Give pKi (testes receptor (testis membranes)) of the following compound: CCN1CCC2C(C1)c1cc(I)c(C)cc1C2c1ccc(C(=O)O)cc1 (stereo not shown)
Result: 7.57

====

system: testes receptor (testis membranes)
testMethodNotes: Displacement of [125I]074(d) from rat testis membranes (Scatchard / displacement binding assay)
details: as stated in the text, listed as -002(d)
propertyLabel: pKi
Formally, pKi is defined as -log10 of the concentration c, with c in mol/L.

Q: Which pKi value is on record for CCN1CCC2C(C1)c1ccc(C)cc1C2c1ccc(C)cc1 (stereo not shown) ?
Result: 5.21
